biological target: glucokinase (GK), residues 12-465 of the human enzyme (Homo sapiens); construct: I.D. No. 1 corresponds to residues 12-465 of glucokinase; test: Enzymatic glucokinase activity assay (KinaseGlo luminescence, ATP consumption); conditions: GK activation; 5 μM ATP, 5 mM Glucose; Kact = concentration giving 50% of the maximal increase in GK activity; read-out: pKact
Sequence (P35557 with tags, fused parts or gaps isoform P35557-2): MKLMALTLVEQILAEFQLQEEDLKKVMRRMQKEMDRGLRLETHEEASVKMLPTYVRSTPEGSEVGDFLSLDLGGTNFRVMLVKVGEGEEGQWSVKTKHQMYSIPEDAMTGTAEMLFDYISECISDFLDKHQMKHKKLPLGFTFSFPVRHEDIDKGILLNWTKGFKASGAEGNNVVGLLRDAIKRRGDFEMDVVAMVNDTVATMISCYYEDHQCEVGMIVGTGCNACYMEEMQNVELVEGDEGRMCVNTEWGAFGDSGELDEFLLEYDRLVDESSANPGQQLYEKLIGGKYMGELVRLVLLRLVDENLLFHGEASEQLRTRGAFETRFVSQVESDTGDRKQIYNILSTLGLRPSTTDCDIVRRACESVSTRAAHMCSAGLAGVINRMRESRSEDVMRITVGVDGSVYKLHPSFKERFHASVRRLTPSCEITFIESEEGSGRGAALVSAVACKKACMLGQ
pEC50: −log10 of the molar value.
Entries annotated with measured pEC50
observation.type: pEC50

INSERT INTO results (smiles, observation_type, value_measured) VALUES
  ('O=C(Nc1nccs1)[C@H](CC1CCCCC1)N1CCN(S(=O)(=O)c2cc3ccccc3o2)CC1=O', 'pEC50', '5.90 to 6.10'),
  ('O=C(Nc1nccs1)[C@H](CC1CCCCC1)N1CCN(S(=O)(=O)C2CCCCC2)CC1=O', 'pEC50', '≥ 6.20'),
  ('Cn1nc(C(F)(F)F)cc1-c1ccc(S(=O)(=O)N2CCN([C@@H](CC3CCCCC3)C(=O)Nc3nccs3)C(=O)C2)s1', 'pEC50', '≥ 6.20'),
  ('O=C(Nc1nccs1)[C@H](CC1CCCCC1)N1CCN(C(=O)Nc2ccc(Cl)cc2)CC1=O', 'pEC50', '≤ 5.50');
